These entries and their values trace back to patent US20230242662A1.

- TESTED_TARGET: T1, cynoCD46-His (cynomolgus, UniProt A0A2K5WCL8 35-328)
- T1 construct: extracellular domain; Immobilised by amine coupling on the SPR chip; not shown: His tag
- T1 sequence: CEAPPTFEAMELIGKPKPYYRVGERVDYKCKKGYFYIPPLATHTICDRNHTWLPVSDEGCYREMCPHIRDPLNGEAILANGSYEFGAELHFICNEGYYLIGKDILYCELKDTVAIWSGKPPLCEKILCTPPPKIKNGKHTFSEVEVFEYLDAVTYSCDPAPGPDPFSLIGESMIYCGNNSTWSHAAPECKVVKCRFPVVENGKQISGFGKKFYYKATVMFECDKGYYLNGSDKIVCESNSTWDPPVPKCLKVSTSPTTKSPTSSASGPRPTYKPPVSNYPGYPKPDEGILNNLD
- PROTOCOL_SUMMARY: SPR, cynoCD46-His immobilised, antibody as analyte, pH 6.0
Exam item: assign yes to entries whose Kd is below 0.8 nM and no to entries at or above 0.8 nM. Note that a value of exactly 0.8 nM receives no.

Sample answers from the record:
BAP133-2-03-03-SL (antibody, V domains shown, the killing assays used the ADC form; also called BAP133-02-03-03-SL; CPE hit BAP133-2-03-03-SL) VH: EVQLVESGGGLVQPGGSLRLSCAASGGSVSSYDISWIRQSPSRGLEWLGVIWTDGGTNYNSAFMSRFTISRDDSKNTAYLQMNSLKTEDTAVYYCERVYDGYPWFAYWGQGTLVTVSS VL: AIQLTQSPSSLSASVGDRVTITCRASQGISNYLNWYLQKPGQSPQLLIYYTSSLHSGVPDRFSGSGSGTDFTLKISRVEAEDVGVYYCQQYIKLPWTFGQGTKVEIK : no
BAP133-2-02-12 (antibody, V domains shown, also called BAP133-02-02-12; CPE hit BAP133-2-02-12) VH: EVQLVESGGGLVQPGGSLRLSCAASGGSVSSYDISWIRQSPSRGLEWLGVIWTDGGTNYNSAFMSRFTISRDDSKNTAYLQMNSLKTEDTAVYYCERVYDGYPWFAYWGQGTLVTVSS VL: AIQLTQSPSSLSASVGDRVTITCRALQGISNYLNWYQQKPGKAPKLLIYYTSSLHSGVPSRFSGSGSGTEFTLTISSLQPDDFATYYCQQYIKLPWTFGQGTKVEIK : no
BA-133-04-04 (antibody, V domains shown, the killing assays used the ADC form; also called CPE hit BA133-04-04) VH: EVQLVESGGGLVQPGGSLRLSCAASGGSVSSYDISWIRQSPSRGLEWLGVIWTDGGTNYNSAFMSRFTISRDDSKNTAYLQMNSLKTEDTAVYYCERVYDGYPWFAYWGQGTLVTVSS VL: AIQLTQSPSSLSASVGDRVTITCRASQGISNYLNWYLQKPGQSPQLLIYYTSSLHEGVPDRFSGSGSGTDFTLKISRVEAEDVGVYYCQQYIKLPWTFGQGTKVEIK : no
BA-133-04-02 (antibody, V domains shown, also called CPE hit BA133-04-02) VH: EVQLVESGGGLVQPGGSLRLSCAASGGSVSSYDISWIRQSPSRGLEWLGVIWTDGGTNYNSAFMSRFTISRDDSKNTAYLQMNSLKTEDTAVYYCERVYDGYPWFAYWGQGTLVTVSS VL: AIQLTQSPSSLSASVGDRVTITCRASQGIANYLNWYLQKPGQSPQLLIYYTSSLHSGVPDRFSGSGSGTDFTLKISRVEAEDVGVYYCQQYIKLPWTFGQGTKVEIK : yes
BA-133-04-03 (antibody, V domains shown, also called CPE hit BA133-04-03) VH: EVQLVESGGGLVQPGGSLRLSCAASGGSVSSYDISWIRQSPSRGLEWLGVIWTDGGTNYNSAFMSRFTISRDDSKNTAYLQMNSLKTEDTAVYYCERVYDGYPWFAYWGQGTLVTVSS VL: AIQLTQSPSSLSASVGDRVTITCRASQGISNYLNWYLQKPGQSPQLLIYYTSSLFSGVPDRFSGSGSGTDFTLKISRVEAEDVGVYYCQQYIKLPWTFGQGTKVEIK : yes

q: Find out if reported Kd for BA-133-04-01 (antibody, V domains shown, also called CPE hit BA133-04-01) VH: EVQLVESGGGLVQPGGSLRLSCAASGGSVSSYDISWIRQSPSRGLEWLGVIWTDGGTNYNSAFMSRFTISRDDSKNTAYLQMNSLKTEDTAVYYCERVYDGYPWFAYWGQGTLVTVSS VL: AIQLTQSPSSLSASVGDRVTITCRASQWISNYLNWYLQKPGQSPQLLIYYTSSLHSGVPDRFSGSGSGTDFTLKISRVEAEDVGVYYCQQYIKLPWTFGQGTKVEIK is less than 0.8 nM
a: yes
